Source of measurements: PubChem BioAssay (NCI)

- System: MDA-MB-435
Choose one outcome from this list and give only that: t = active, f = inactive

// known answers, use as guide
Dear colleague, could you share the recorded outcome for COC(=O)c1ccc2c(c1)n(Cc1ccc3ccccc3c1)c[n+]2Cc1ccc2ccccc2c1 when you have a moment?
f

Dear colleague, could you share the recorded outcome for NCCCCn1c2c(c3ccccc3c1=O)C(=O)c1ccccc1-2 when you have a moment?
f

Dear colleague, could you share the recorded outcome for COc1cc(-c2c(C#N)c(N)n3c(nc4ccccc43)c2C#N)cc(Br)c1OC when you have a moment?
f

---
Dear colleague, could you share the recorded outcome for COc1cc(Cn2c(-c3ccccc3)cc3c2-c2oncc2CC3)cc(OC)c1OC when you have a moment?
t

Dear colleague, could you share the recorded outcome for CC(C)(C)OC(=O)N(CCCN(CCn1c2c(c3ccccc3c1=O)C(=O)c1ccccc1-2)C(=O)OC(C)(C)C)CCn1c2c(c3ccccc3c1=O)C(=O)c1ccccc1-2 when you have a moment?
f

Dear colleague, could you share the recorded outcome for CN1C(NC(=O)c2ccc(Cl)nc2)=NS(=O)(=O)c2cc(Cl)ccc21 when you have a moment?
f

Dear colleague, could you share the recorded outcome for CCCCCCCCCCC(O)C1CCC(C2CCC(C(O)CCCCC(O)CCCCCC(O)CC3=CC(C)OC3=O)O2)O1 (centres undefined) when you have a moment?
f

Dear colleague, could you share the recorded outcome for Cc1cc(C2CCCCC2)n(O)c(=O)c1 when you have a moment?
f

Dear colleague, could you share the recorded outcome for COc1ccc(S(=O)(=O)N(Cc2ccc3c(n2)C=CC(C)(C)O3)C2CCC2)cc1OC when you have a moment?
t

Dear colleague, could you share the recorded outcome for CC12CCCC(CC(=O)c3[nH]c4ccccc4c31)C2 (centres undefined) when you have a moment?
t

Dear colleague, could you share the recorded outcome for COc1ccc(C2CC(=O)c3c(OC)cc(OC)cc3O2)cc1 (centres undefined) when you have a moment?
f

Dear colleague, could you share the recorded outcome for CCCCNC(=O)NS(=O)(=O)c1ccc(N2N=C(c3ccc(C)cc3C)CC2c2ccc(N(C)C)cc2)cc1 (centres undefined) when you have a moment?
f

Dear colleague, could you share the recorded outcome for CCCCC/C=C/C/C=C/CCCCCCCC1=NC(C)(C)CN1C(C)C when you have a moment?
f

Dear colleague, could you share the recorded outcome for COc1ccc(OC(=O)O[C@H]2[C@H](O[C@H]3[C@@H](O)COC(O[C@H]4C[C@H]5[C@@H]6CC=C7C[C@@H](O)CC[C@]7(C)[C@H]6CC[C@]5(C)[C@H]4[C@H](C)C(=O)CCC(C)C)[C@@H]3OC(C)=O)OC[C@@H](O)[C@@H]2O)cc1 (some centres undefined) when you have a moment?
t

----------
- System: HCT-15 colon
- Measurement Notes: NCI tumour cell line growth inhibition, 48 h
Readout: TGI (µM)
Write the answer as a number in µM, unit excluded.

For record CC#CC(=O)Nc1ccccc1CC(c1c[nH]c2ccccc12)c1c[nH]c2ccccc12 the listed TGI is 32.8

For record COc1ccc(OC)c2c1C(=O)C(Cl)=C(N1CCN(CCOCCO)CC1)C2=O the listed TGI is 18.4

For record COc1ccc(OC(=O)O[C@H]2[C@H](O[C@H]3[C@@H](O)COC(O[C@H]4C[C@H]5[C@@H]6CC=C7C[C@@H](O)CC[C@]7(C)[C@H]6CC[C@]5(C)[C@H]4[C@H](C)C(=O)CCC(C)C)[C@@H]3OC(C)=O)OC[C@@H](O)[C@@H]2O)cc1 (some centres undefined) the listed TGI is 11.4

For record CC(=O)[O][Hg][c]1c(C)c(C)c(C)c(C)c1C the listed TGI is 2.93

For record O=[N+]([O-])c1ccc2nnnn2c1 the listed TGI is 44.3

----------
GI50 data for NCI-H460 lung follow.

Bench note, NCI-H460 lung: CCCNC(=S)N/N=C(\C)c1ccccn1 , GI50 reads 0.242 µM

Bench note, NCI-H460 lung: COc1ccc(-n2cc(-c3cc(OC)c(OC)c(OC)c3)[nH]c2=S)cc1OC , GI50 reads > 100 µM

Bench note, NCI-H460 lung: C=C1C(=O)O[C@H]2[C@H]1CC/C(COC(=O)/C=C\C(=O)NCc1ccc(Cn3c(=O)sn(-c4ccc(C#N)cc4)c3=O)cc1)=C\CC[C@@]1(C)O[C@@H]21 , GI50 reads 0.844 µM

---
Bench note, NCI-H460 lung: CCCCNC(=O)NS(=O)(=O)c1ccc(N2N=C(c3ccc(C)cc3C)CC2c2ccc(N(C)C)cc2)cc1 (stereo not given) , GI50 reads 3.33 µM

Bench note, NCI-H460 lung: COc1cccc(N=Cc2c3ccccc3c(=O)n3c2oc2ccccc23)c1 , GI50 reads 11.3 µM

Bench note, NCI-H460 lung: C[C@]12CC[C@@H]3c4ccc(O)cc4C[C@@H](CCCCCCCCCS(=O)CCCC(F)(F)C(F)(F)F)[C@H]3[C@@H]1CC[C@@H]2O (stereo not given in full) , GI50 reads > 100 µM

Bench note, NCI-H460 lung: N#C/C(C(=S)Nc1ccccc1)=C1/NN=C2c3ccccc3C(=O)NN21 , GI50 reads 26.3 µM

Bench note, NCI-H460 lung: COC(=O)c1cc2c(c(C(=O)OC)c1O)C(=O)C=CC2=O , GI50 reads > 9.1 µM

Bench note, NCI-H460 lung: Cc1cc(C)cc(Nc2cc(C)nc3nc(C(F)(F)F)nn23)c1 , GI50 reads > 100 µM

Bench note, NCI-H460 lung: COc1ccc(C2CC(=O)c3c(OC)cc(OC)cc3O2)cc1 (stereo not given) , GI50 reads > 100 µM

Bench note, NCI-H460 lung: COc1ccc(-c2nc(-c3nc4ccc(C)cc4[nH]3)c3ccccn23)cc1 , GI50 reads 2.28 µM

Bench note, NCI-H460 lung: CC(C)CSc1nc(Nc2ccccc2)c(C#N)c(-c2ccc(F)cc2)n1 , GI50 reads 0.806 µM

Bench note, NCI-H460 lung: COC(=O)[C@]12CCC(C)(C)C[C@H]1C1=CC[C@@H]3[C@@]4(C)C/C(=C/c5cccnc5)C(=O)C(C)(C)[C@@H]4CC[C@@]3(C)[C@]1(C)CC2 , GI50 reads 5.53 µM

Bench note, NCI-H460 lung: COc1ccc(/C(=N/Nc2ccc([N+](=O)[O-])cc2)Sc2cc(Cl)c(C)cc2S(N)(=O)=O)cc1 , GI50 reads 5.55 µM

Bench note, NCI-H460 lung: C[C@]12CC[C@@H]3c4ccc(O)cc4CC[C@H]3[C@@H]1CC[C@@H]2NS(=O)(=O)c1ccc(C(F)(F)F)cc1 , GI50 reads 1.98 µM

----------
- Test system: DU-145 prostate
- Measurement Notes: NCI tumour cell line growth inhibition, 48 h
Readout: GI50

Example compounds with recorded GI50:
For record CCCNC(=S)N/N=C(\C)c1ccccn1 the listed GI50 is 1.1 µM

For record CCCCCCCCCCC(O)C1CCC(C2CCC(C(O)CCCCC(O)CCCCCC(O)CC3=CC(C)OC3=O)O2)O1 (stereo not drawn) the listed GI50 is > 25 µM

For record CC(C)CSc1nc(Nc2ccccc2)c(C#N)c(-c2ccc(F)cc2)n1 the listed GI50 is 11 µM

For record Cn1cc(C2=C(c3cn(CCCN=C(N)N)c4ccccc34)C(=O)NC2=O)c2ccccc21 the listed GI50 is > 25 µM

For record CN1C(NC(=O)c2ccc(Cl)nc2)=NS(=O)(=O)c2cc(Cl)ccc21 the listed GI50 is > 100 µM

---
For record Cn1cc(-c2csc(-c3cccc(F)c3)n2)c2cccnc21 the listed GI50 is 18.2 µM

For record COc1ccc(-c2nc(-c3nc4ccc(C)cc4[nH]3)c3ccccn23)cc1 the listed GI50 is 2.85 µM

For record Cc1c2c(nn1-c1ccc(S(=O)(=O)/N=C3\SCC(=O)N3C(=O)c3ccccc3)cc1)-c1ccccc1CC2 the listed GI50 is 38.6 µM

----------
- Tested on: OVCAR-4 ovarian
- Measurement Notes: NCI tumour cell line growth inhibition, 48 h
Readout: TGI

Bench note, OVCAR-4 ovarian: COc1cc(C2c3cc4c(cc3[C@H](OCCN(C)C)[C@@H]3COC(=O)C23)OCO4)cc(OC)c1O (stereo not given in full) , TGI reads 4.97 µM

Bench note, OVCAR-4 ovarian: C#CC[C@]12CC(=O)CC[C@H]1CC(=O)C2 , TGI reads > 100 µM

Bench note, OVCAR-4 ovarian: Cc1c2c(nn1-c1ccc(S(=O)(=O)/N=C3\SCC(=O)N3C(=O)c3ccccc3)cc1)-c1ccccc1CC2 , TGI reads > 100 µM

Bench note, OVCAR-4 ovarian: O=C(C[C@@H](C(=O)NCc1cccc(C(F)(F)F)c1)N1C(=O)[C@@H](N2C(=O)OC[C@@H]2c2ccccc2)[C@H]1/C=C/c1ccccc1)NC1CCN(Cc2ccccc2)CC1 , TGI reads 4.43 µM

Bench note, OVCAR-4 ovarian: N#CCCN(CCC#N)c1ccc(/C=C2\N=C(CN3C(=O)c4ccccc4C3=O)OC2=O)cc1 , TGI reads > 100 µM

Bench note, OVCAR-4 ovarian: CC(=O)NCc1nc(C#N)c(N)o1 , TGI reads > 100 µM

Bench note, OVCAR-4 ovarian: CN1C(NC(=O)c2ccc(Cl)nc2)=NS(=O)(=O)c2cc(Cl)ccc21 , TGI reads > 100 µM

Bench note, OVCAR-4 ovarian: Cc1ccc(N=NC(C(=O)c2ccccc2)C(=O)c2ccccc2)cc1 , TGI reads 61.6 µM

Bench note, OVCAR-4 ovarian: Clc1ccc2c(NCCCCN=Cc3ccccc3)ccnc2c1 , TGI reads 28.1 µM

Bench note, OVCAR-4 ovarian: COC(=O)CSc1n[nH]c(-c2ccc(O)c([N+](=O)[O-])c2)n1 , TGI reads > 100 µM

Bench note, OVCAR-4 ovarian: COc1ccc(-c2nc(-c3nc4ccc(C)cc4[nH]3)c3ccccn23)cc1 , TGI reads > 100 µM

Bench note, OVCAR-4 ovarian: CC[N+](C)(CC)Cc1ccccc1[N+](=O)[O-] , TGI reads > 100 µM

Bench note, OVCAR-4 ovarian: CN(C)/N=C(\CCN1CCCC1)CC(c1ccccc1)c1c(O)c2ccccc2oc1=O (stereo not given) , TGI reads > 100 µM
